Origin of measurements: patent EP4763839A1

Kindly supply the reported Dmax values for the records listed here.
test.target: IRAK4 (Homo sapiens)
Sequence (Q9NWZ3 1-460): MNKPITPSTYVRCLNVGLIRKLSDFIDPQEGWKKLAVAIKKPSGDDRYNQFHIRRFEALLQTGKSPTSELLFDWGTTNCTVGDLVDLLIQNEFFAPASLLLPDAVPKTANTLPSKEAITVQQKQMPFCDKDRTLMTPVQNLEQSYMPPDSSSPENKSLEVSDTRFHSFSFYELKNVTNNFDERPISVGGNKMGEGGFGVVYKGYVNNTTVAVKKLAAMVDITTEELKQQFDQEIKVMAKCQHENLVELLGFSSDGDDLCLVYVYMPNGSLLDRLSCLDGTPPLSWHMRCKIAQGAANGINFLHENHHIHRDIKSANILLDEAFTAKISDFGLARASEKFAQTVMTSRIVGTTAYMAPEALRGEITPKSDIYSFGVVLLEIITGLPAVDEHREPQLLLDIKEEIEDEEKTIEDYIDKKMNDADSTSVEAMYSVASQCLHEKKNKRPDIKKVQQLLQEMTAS
assay.overview: Degradation of IRAK4 in THP1 cells, Western blot
Type: cell-based
Parameters: Degradation of IRAK4 in THP1 by compound; host or cells: THP-1
test.settings: maximum degradation rate, THP-1 cells, 24 hours of incubation; read-out: Dmax

Solved entries (count: 4):
NC(=O)c1nn(-c2ccc(N3CCN(C(=O)C4CCN(c5cc(F)c(C6CCC(=O)NC6=O)c(F)c5)C4)CC3)cc2)cc1NC(=O)c1cccc(C(F)(F)F)n1 (centres unmarked)    > 60%
COc1ccc(C(=O)N2CCC(CCN3CCN(c4ccc(-n5cc(NC(=O)c6cccc(-c7ccn[nH]7)n6)c(S(N)(=O)=O)n5)cc4)CC3)C2)cc1N1CCC(=O)NC1=O (centres unmarked)    > 60%
Cn1c(=O)n(C2CCC(=O)NC2=O)c2cccc(CN3CCC(N4CCN(c5ccc(-n6cc(NC(=O)c7cccc(C(F)(F)F)n7)c(C(N)=O)n6)cc5)CC4)CC3)c21 (centres unmarked)    > 60%
Cn1c(=O)n(C2CCC(=O)NC2=O)c2cccc(N3CCC4(CC3)CC(NCc3ccc(-n5cc(NC(=O)c6cccc(C(F)(F)F)n6)c(C(N)=O)n5)cc3)C4)c21 (centres unmarked)    > 60%

Give IRAK4 (Homo sapiens) Dmax for CC(C)(O)c1nn(-c2ccc(N3CCN(CC4CCN(c5ccc(NC6CCC(=O)NC6=O)cc5F)CC4)CC3)cc2)cc1NC(=O)c1cccc(C#N)n1 (centres unmarked)
< 40%

----------
test.target: IRAK4 (Homo sapiens)
Sequence (Q9NWZ3 1-460): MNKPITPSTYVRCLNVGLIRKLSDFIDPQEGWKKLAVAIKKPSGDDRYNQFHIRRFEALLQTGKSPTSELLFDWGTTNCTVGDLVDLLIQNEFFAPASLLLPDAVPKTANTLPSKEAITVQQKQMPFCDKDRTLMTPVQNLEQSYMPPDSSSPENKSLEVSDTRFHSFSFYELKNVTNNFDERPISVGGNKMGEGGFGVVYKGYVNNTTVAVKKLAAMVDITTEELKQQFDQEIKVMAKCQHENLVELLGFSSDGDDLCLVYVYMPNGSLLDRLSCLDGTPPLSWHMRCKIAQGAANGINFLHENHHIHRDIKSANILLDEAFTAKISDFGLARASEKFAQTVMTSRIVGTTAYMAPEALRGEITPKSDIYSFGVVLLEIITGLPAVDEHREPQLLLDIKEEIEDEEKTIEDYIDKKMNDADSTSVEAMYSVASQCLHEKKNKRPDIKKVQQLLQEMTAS
assay.overview: Assay for inhibitory effect of compound on IRAK4 kinase activity (KinEASE-STK S1 HTRF kit)
Assay type: biochemical
test.settings: kinase 8 nM, ATP 80 µM, 37°C 90 minutes; read-out: IRAK4 HTRF IC50
reported.property: IC50

Solved entries (count: 2):
COc1nn(-c2ccccc2)cc1NC(=O)c1cccc(C(=O)c2cn[nH]c2)n1    < 0.1 µM
NC(=O)c1nn(C2CC(N)C2)cc1NC(=O)c1cccc(C(F)(F)F)n1 (stereo not shown)    < 0.1 µM

Please give IC50 for each item listed below.
1. CC(=O)N1CCN(c2ccc(-n3cc(NC(=O)c4cccc(C(F)(F)F)n4)c(C(N)=O)n3)cc2)CC1
2. NC(=O)c1nn(-c2ccc(CO)cc2)cc1NC(=O)c1cccc(C(F)(F)F)n1
3. O=C(Nc1cn(-c2ccccc2)nc1C(=O)NC1CC1)c1cccc(C(F)(F)F)n1
4. O=C(Nc1cn(-c2ccccc2)nc1CO)c1cccc(C(F)(F)F)n1
5. CS(=N)(=O)c1nn(-c2ccccc2)cc1NC(=O)c1cccc(-c2cc[nH]n2)n1 (stereo not shown)
6. O=C(Nc1cn(-c2ccccc2)nc1OCC(F)(F)F)c1cccc(-c2ccn[nH]2)n1
7. NS(=O)(=O)c1nn(-c2ccccc2)cc1NC(=O)c1cccc(C(F)(F)F)n1

["< 0.1 µM", "0.1 to 1 µM", "0.1 to 1 µM", "0.1 to 1 µM", "0.1 to 1 µM", "< 0.1 µM", "0.1 to 1 µM"]
